- Test system: SEM cells
- ASSAY REMARKS: cell viability relative to DMSO control; higher = less cytotoxic
- REPORTED CONDITIONS: RPMI 5 mM glucose + 10% dialyzed FBS; 48 h; 1.71 µM
PROPERTY NAME: cell viability
// return the numeric value with its unit appended

Observe how each entry below is paired with its result.
- COc1cc([S+](C)(=O)[O-])ccc1Nc1nc2ccc(-c3ccc(NC(=O)[C@H](C)c4ccc(F)cc4)cc3)cn2n1: 53.9%
- C=C1C(=O)O[C@@H]2[C@H]3O[C@]3(C)CC/C=C(\C)CC[C@@H]12: 42.4%
- Cc1n[nH]c2ccc(-c3cncc(OC[C@@H](N)Cc4c[nH]c5ccccc45)c3)cc12: 26.6%

Attention now turns to another entry.
Consider the compound shown here: `CON(C)C(=O)N1\N=C(/S[C@]1(CCCN)C2=CC=CC=C2)C3=CC(=CC=C3F)F` What is its recorded cell viability? 24.6%

----------
Reported cell viability values for the following compounds.
- Test system: P12-Ichikawa
- ASSAY REMARKS: cell viability relative to DMSO control; higher = less cytotoxic
- REPORTED CONDITIONS: RPMI 5 mM glucose + 10% FBS; 48 h; 0.0211 µM
// return the numeric value with its unit appended

- CCCCCCCN(CC)CCCC(O)c1ccc(NS(C)(=O)=O)cc1.CCCCCCCN(CC)CCCC(O)c1ccc(NS(C)(=O)=O)cc1.O=C(O)/C=C/C(=O)O (configuration not stated): 108%
- COc1ccc(-c2cc3c(C)nc(N)nc3n([C@H]3CC[C@H](OCCO)CC3)c2=O)cn1: 78%
- O=C(O)c1nn(Cc2ccc(Cl)cc2Cl)c2ccccc12: 85.2%
- CON(C)C(=O)N1\N=C(/S[C@]1(CCCN)C2=CC=CC=C2)C3=CC(=CC=C3F)F: 16.2%
- O=C1C(CCC(O)c2ccc(F)cc2)C(c2ccc(O)cc2)N1c1ccc(F)cc1 (configuration not stated): 118%

Consider the compound shown here: `CN1C(=O)\C(=C/C2=C1N=C(NC3CCOCC3)N=C2)OC4=C(F)C=C(F)C=C4` What is its recorded cell viability? 95.2%

Consider the compound shown here: `COc1cc2nc(N3CCN(C(=O)c4ccco4)CC3)nc(N)c2cc1OC` What is its recorded cell viability? 91.6%

----------
- System: P12-Ichikawa
- ASSAY REMARKS: cell viability relative to DMSO control; higher = less cytotoxic
- REPORTED CONDITIONS: RPMI 5 mM glucose + 10% dialyzed FBS; 48 h; 0.0211 µM
PROPERTY NAME: cell viability (%)
Please give a number only; it is taken to be in %.

• Cc1ccc([S+](=O)([O-])NC(=O)NN2CC3CCCC3C2)cc1 (stereo not drawn) = 106
• CCC1=C2CN3C(=O)\C4=C(/C=C3/C2=NC5=CC=C(O)C=C15)[C@@](O)(CC)C(=O)OC4 = 15.1

Attention now turns to another entry.
Consider the compound shown here: `CCc1nc(C(N)=O)c(Nc2ccc(N3CCC(N4CCN(C)CC4)CC3)c(OC)c2)nc1NC1CCOCC1` What is its recorded cell viability? 111

----------
- Tested on: SEM cells
- ASSAY REMARKS: cell viability relative to DMSO control; higher = less cytotoxic
- REPORTED CONDITIONS: RPMI 5 mM glucose + 10% dialyzed FBS; 48 h; 15.4 µM
Reported cell viability values for the following compounds.
Please give a number only; it is taken to be in %.

- COc1c(C)c2c(c(O)c1C/C=C(\C)CCC(=O)OCCN1CCOCC1)C(=O)OC2: 56
- CCC1=C2CN3C(=O)\C4=C(/C=C3/C2=NC5=CC=C(O)C=C15)[C@@](O)(CC)C(=O)OC4: 5.69
- COc1ccccc1OCC(O)CN1CCN(CC(=O)Nc2c(C)cccc2C)CC1 (centres undefined): 130

Consider the compound shown here: `CC(=O)O/N=C1/C(=C2\C(=O)Nc3cc(Br)ccc32)Nc2ccccc21` What is its recorded cell viability? 11.8
